Molecular target: T1, HLA-A*02:01 class I complex (conditional p*HLA*02:01, biotinylated heavy chain with beta2-microglobulin) (human, biotinylated heavy chain)
T1 construct: UV-labile peptide p* is cleaved and exchanged for the test peptide; also called HLA 2.1
Experiment: UV peptide exchange, HLA class I ELISA, % of Pos peptide;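 note: Streptavidin-captured HLA complexes after exchange detected via HRP anti-human B2M antibody, absorbance read, colour scales with intact complex, normalized to exchange control peptide as 100%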
measurement-name: Average % (%)

- RMIHRDLAV (also called M243; ERBB2_V84216) [ERBB2_V842I6 mimic peptide RMIHRDLAV]: 57.6
- ILNREIDFL (also called M093) [PIK3CA_G118D9 mimic peptide ILNREIDFL]: 56.2
- KLYPVQLWI (also called M134) [TP53.C141Y12 mimic peptide KLYPVQLWI]: 73.9
- VLPCEPPEV (also called M231) [TP53_Y220C2 mimic peptide VLPCEPPEV]: 70
- KLYPVQLWV (also called M131) [TP53_C141Y2 mimic peptide KLYPVQLWV]: 81.9
- AMNNMFCQV (also called M162) [TP53_K132N6 mimic peptide AMNNMFCQV]: 70.1
- GLAPPQLLV (also called M141) [TP53_H193L5 mimic peptide GLAPPQLLV]: 42.2
- YQGSYGFLV (also called M202) [TP53_R110L4 mimic peptide YQGSYGFLV]: 49.6
